Cited source: ChEMBL document CHEMBL1156829

Assay: NOVARTIS: Cytotoxicity against human hepatocellular carcinoma cell line (Huh7)
Assay type: toxicity, cell-based, Huh-7
Details: Huh7 cells (hepatocellular carcinoma cell line)
Parameter: CC50

Check out these entries, answers already filled in.
| Molecule | CC50 |
| --- | --- |
| O=C(NCCCN1CCOCC1)c1c[nH]c2ccc(S(=O)(=O)N3CCc4ccccc43)cc2c1=O | > 100 µM |
| Cc1ccc(N2C(=O)CC(NCCCN3CCOCC3)C2=O)cc1 (configuration not stated) | > 10 µM |
| CCOC(=O)c1ccc(NC(=O)c2cc3ccccn3n2)cc1 | > 10 µM |
| COc1cccc(NC(=O)c2ccc(NCCCC3CCCCCC3)c([N+](=O)[O-])c2)c1 | 28.8 µM |

Which CC50 reading was recorded for the molecule C=CCC1C=C(Cc2ccccc2)CC(CC=C)N1 (configuration not stated) ?
46 µM

Which CC50 reading was recorded for the molecule "CCCCN1C(=O)/C(=C/N(C(=O)CC)c2ccccc2)SC1=S" ?
> 10 µM

Which CC50 reading was recorded for the molecule "O=C(Nc1ccncc1)Nc1cccc(NC(=O)Nc2ccncc2)c1" ?
> 10 µM

Which CC50 reading was recorded for the molecule "CN1CCc2c(sc3nc(SCc4ccccc4)n(-c4ccccc4)c(=O)c23)C1" ?
> 100 µM

Which CC50 reading was recorded for the molecule "CCOC(=O)c1cnc2cc(OCC3CC3)c(OCC3CC3)cc2c1O" ?
> 100 µM

Which CC50 reading was recorded for the molecule "Cn1c(C(=O)c2cccc3ccccc23)nc2ccccc21" ?
21.5 µM

Which CC50 reading was recorded for the molecule "Brc1ccc(/C=C/c2cc[n+](Cc3ccccc3)cc2)cc1" ?
> 10 µM

* * *

// EC50 lookup, one value per entry
Test system: Plasmodium falciparum
Test: NOVARTIS: Inhibition of Plasmodium falciparum 3D7 (drug-susceptible) proliferation in erythrocyte-based infection assay
Assay type: functional, organism-based
Details: Plasmodium falciparum, 3D7
Give just the numeric value; nM need not be written.

Check out these entries, answers already filled in.
| Compound | Tested system | Unit annotation | Observed value |
| --- | --- | --- | --- |
| CC(C)NCC(O)Cn1c2ccc(Br)cc2c2cc(Br)ccc21 (stereo not given) | Plasmodium falciparum | nM | 216 |
| CCCCCCN(C(=O)COc1ccccc1)C(CC)c1nc2ccccc2c(=O)n1-c1cccc(Cl)c1 (stereo not given) | Plasmodium falciparum | nM | 2740 |
| COC(=O)C1=C(C)NC2=C(C(=O)CC(c3ccc(OC)c(OC)c3)C2)C1c1ccc([N+](=O)[O-])cc1 (stereo not given) | Plasmodium falciparum | nM | 2680 |

# evaluate next
Give EC50 (Plasmodium falciparum) of the following compound: "CC(=O)Nc1cc(C(F)(F)F)cc(C(F)(F)F)c1"
1310

* * *

Experiment: NOVARTIS: Cytotoxicity against human hepatocellular carcinoma cell line (Huh7)
Format: toxicity, cell-based, Huh-7
Settings: Huh7 cells (hepatocellular carcinoma cell line)
Parameter: CC50 (µM)
Give just the numeric value; µM need not be written.

Check out these entries, answers already filled in.
| Molecule | Unit annotation | Observed value |
| --- | --- | --- |
| O=C(Nc1cc(C(F)(F)F)ccc1N1CCOCC1)C(Cl)(Cl)Cl | µM | 74.8 |
| CC1(C)C=C(C23C=CC(C2)C2C(=C4CC(C)(C)NC(C)(C)C4)C=CC23)CC(C)(C)N1 (stereo not given) | µM | 44.7 |
| CC(=O)N(C1=C(N2CCCC2)C(=O)c2ccccc2C1=O)c1ccc(I)cc1 | µM | 47 |

Which CC50 reading was recorded for the molecule CCOc1ccc(C2=NC3(CCN(C(C)C)CC3)NC(c3cc(Cl)ccc3O)C2)cc1 (stereo not given) ?
59.9

Which CC50 reading was recorded for the molecule CN(Cc1ccccc1)CC(O)COc1ccc(CNCCCN2CCCC2)cc1 (stereo not given) ?
59.8

* * *

Assay: NOVARTIS: Cytotoxicity against human hepatocellular carcinoma cell line (Huh7)
Format: toxicity, cell-based, Huh-7
Details: Huh7 cells (hepatocellular carcinoma cell line)
Parameter: CC50

Check out these entries, answers already filled in.
| Compound | CC50 |
| --- | --- |
| CC(=O)OCC(=O)[C@@]1(O)CCC2C3CCC4=CC(=O)CC[C@]4(C)C3[C@@H](O)C[C@@]21C (stereo not given in full) | > 10 µM |
| CCOC(=O)C1=C(C)NC2=C(C(=O)C(C(=O)OC)C(C)C2)C1c1cc(Br)c(OCC)c(OC)c1 (stereo not given) | > 100 µM |
| c1ccc(Cn2c(N=Nc3c(Nc4ccccc4)ccc4ccccc34)nc3ccccc32)cc1 | 88 µM |

Which CC50 reading was recorded for the compound "Cc1ccnc(Nc2nc(-c3c(C)nc4sccn34)cs2)c1" ?
> 73.5 µM

Which CC50 reading was recorded for the compound "O=C(Nc1ccc(-c2nnc(-c3ccccc3)o2)cc1)c1ccc(Br)cc1" ?
> 10 µM

Which CC50 reading was recorded for the compound CCOC(=O)c1ccc(N2C(=O)c3[nH]nc(C)c3C2c2ccccc2OC)cc1 (stereo not given) ?
> 10 µM

Which CC50 reading was recorded for the compound NC(Cc1ccccc1)C(=O)N1CCn2c(nc(-c3ccccc3)c2Nc2ccc3c(c2)OCO3)C1 (stereo not given) ?
42.8 µM

Which CC50 reading was recorded for the compound "CCOC(=O)c1[nH]c2ccc(C)cc2c1N=NN(C)C" ?
26.3 µM

Which CC50 reading was recorded for the compound "CCCCN1Cc2ccc(C(=O)NCCN3CCOCC3)cc2N=C1c1ccc(OC)cc1" ?
> 100 µM

Which CC50 reading was recorded for the compound "c1ccc2c(NCCc3c[nH]c4ccccc34)c3ccccc3nc2c1" ?
7.08 µM

* * *

// CC50 lookup, one value per entry
Experiment: NOVARTIS: Cytotoxicity against human hepatocellular carcinoma cell line (Huh7)
Type: toxicity, cell-based, Huh-7
Conditions: Huh7 cells (hepatocellular carcinoma cell line)

Check out these entries, answers already filled in.
| Molecule | CC50 |
| --- | --- |
| NCCCNc1ncc(C(=O)NCc2ccccc2)c(NCC2CCCCC2)n1 | 5.14 µM |
| CCCCCC(=O)Oc1ccccc1-c1nc2cc(C)ccn2c1NC(C)(C)CC(C)(C)C | > 10 µM |

Which CC50 reading was recorded for the molecule "CCC[n+]1cccc2ccc3cccnc3c21" ?
44.3 µM

Which CC50 reading was recorded for the molecule OC1(c2cccc3ccccc23)CCN(Cc2ccccc2)C1 (stereo unspecified) ?
23.1 µM

Which CC50 reading was recorded for the molecule "Cc1cc2c(Nc3cccc(Cl)c3C)ncnc2s1" ?
> 100 µM

Which CC50 reading was recorded for the molecule "CCOC(=O)c1cc(-c2ccc(Cl)cc2Cl)[nH]c1N1CCN(c2ccc(OC)cc2)CC1" ?
> 13.4 µM

Which CC50 reading was recorded for the molecule O=C1c2ccccc2C2=Nc3ccccc3SC(c3ccccc3F)C12 (stereo unspecified) ?
22.9 µM

Which CC50 reading was recorded for the molecule COc1ccc(C2Sc3ccccc3N=C3C2=C(O)c2ccccc23)cc1 (stereo unspecified) ?
> 100 µM

Which CC50 reading was recorded for the molecule "Cc1cc(C)cc(NC2=C(c3ccccc3)C(=O)c3ccccc32)c1" ?
> 100 µM

Which CC50 reading was recorded for the molecule CN1C(=O)NC(c2cccnc2)C(C(=O)c2cccs2)C1(O)C(F)(F)F (stereo unspecified) ?
> 100 µM

Which CC50 reading was recorded for the molecule "O=[N+]([O-])c1ccc(-c2ccc(C=NNc3nc(Nc4ccccc4)nc(Nc4ccccc4)n3)o2)cc1" ?
> 100 µM

* * *

Assay: NOVARTIS: Cytotoxicity against human hepatocellular carcinoma cell line (Huh7)
Format: toxicity, cell-based, Huh-7
Conditions: Huh7 cells (hepatocellular carcinoma cell line)
// CC50 lookup, one value per entry

| Compound | CC50 |
| --- | --- |
| COc1ccc(C(=O)C(C)[n+]2ccccc2-c2ccccn2)cc1 (stereo not given) | > 12.1 µM |
| Cc1cc(C)c(CSC(=N)N)c(C)c1CSC(=N)N | > 10 µM |
| CCOc1ccc(Nc2nc(N)c3ccccc3n2)cc1 | 2.37 µM |

Which CC50 reading was recorded for the compound "CCCn1c(SCCNC(=O)/C=C/c2ccccc2)nc(-c2ccccc2)c1-c1ccccc1" ?
9.38 µM

Which CC50 reading was recorded for the compound "Cc1cc(Nc2cccc(Cl)c2)nc2ccc(NC(=O)c3cccnc3)cc12" ?
4.19 µM

Which CC50 reading was recorded for the compound "Cc1ccc(Nc2nc(NN=Cc3ccc(-c4ccc(Cl)c([N+](=O)[O-])c4)o3)nc(N3CCOCC3)n2)c(Br)c1" ?
> 10 µM

Which CC50 reading was recorded for the compound CCN(CC)CCCC(C)Nc1cc(/C=C/c2ccccc2Cl)nc2cc(Cl)ccc12 (stereo not given) [AMINOQUINOL] ?
> 10 µM

* * *

Test system: Plasmodium falciparum
Experiment: NOVARTIS: Inhibition of Plasmodium falciparum W2 (drug-resistant) proliferation in erythrocyte-based infection assay
Format: functional, organism-based
Conditions: Plasmodium falciparum, W2; read-out: EC50
// log10(EC50) lookup, one value per entry
Please note: log10 values; quantity EC50; unit µM.

Check out these entries, answers already filled in.
| Compound | Tested system | log10(EC50) |
| --- | --- | --- |
| COc1cccc(-c2ccc(O)c(CNC3CCN(Cc4ccccc4)CC3)c2)n1 | Plasmodium falciparum | -0.79 |
| CCCOC(=O)C1=C(C)NC2=C(C(=O)CC(c3ccc(OC)c(OC)c3)C2)C1c1ccc(O)c(OCC)c1 (centres undefined) | Plasmodium falciparum | 0.11 |
| COc1cc(C2C(C(=O)OCCc3ccccc3)=C(C)NC3=C2C(=O)CC(c2ccc(Cl)cc2)C3)ccc1OCc1ccccc1 (centres undefined) | Plasmodium falciparum | 0.20 |
| CCOCCCNC(=O)c1cc(NC(=O)c2ccc(Cl)c([N+](=O)[O-])c2)ccc1N1CCCCC1 | Plasmodium falciparum | -1.11 |
| CCc1nc2nc(C)cc(Nc3ccc(C)c(F)c3)n2n1 | Plasmodium falciparum | -0.85 |

# evaluate next
Which log10(EC50) reading was recorded for the compound CCNC(=S)NC1CC2CCCC(C1)N2CCc1ccccc1 (centres undefined) ?
0.14
